Hey, just so you know, these numbers are from BigSolDB 2.1.

conditions: in dichloromethane, 293.15 K
experimental endpoint: solubility (mole fraction)

> print(dat)
     smiles.representation  observed
1  CN1COCNC1=N[N+](=O)[O-]    0.0126

###

settings: in dichloromethane, 298.15 K
experimental endpoint: solubility (mole fraction)

> print(dat)
     smiles.representation       experimental.endpoint  observed
1  CN1COCNC1=N[N+](=O)[O-]  solubility (mole fraction)    0.0154

###

settings: in methyl acetate, 313.15 K
experimental endpoint: solubility (mole fraction)

> print(dat)
     smiles.representation       experimental.endpoint  observed
1  CN1COCNC1=N[N+](=O)[O-]  solubility (mole fraction)    0.0124

###

settings: in dichloromethane, 303.15 K
experimental endpoint: solubility (mole fraction)

> print(dat)
     smiles.representation       experimental.endpoint  observed
1  CN1COCNC1=N[N+](=O)[O-]  solubility (mole fraction)    0.0162

###

settings: in methanol, 318.15 K
experimental endpoint: solubility (mole fraction)

> print(dat)
     smiles.representation  observed
1  CN1COCNC1=N[N+](=O)[O-]   0.00759

###

details: in ethylene glycol, 323.15 K
experimental endpoint: solubility (mole fraction)

> print(dat)
     smiles.representation  observed
1  CN1COCNC1=N[N+](=O)[O-]   0.00893

###

conditions: in acetonitrile, 303.15 K
experimental endpoint: solubility (mole fraction)

> print(dat)
     smiles.representation  observed
1  CN1COCNC1=N[N+](=O)[O-]    0.0336

###

settings: in ethylene glycol, 303.15 K
experimental endpoint: solubility (mole fraction)

> print(dat)
     smiles.representation       experimental.endpoint  observed
1  CN1COCNC1=N[N+](=O)[O-]  solubility (mole fraction)   0.00289
